Experimental target: OsWRKY34 (Oryza sativa, UniProt Q0JBA9 1-250)
Sequence (Q0JBA9 entry or part of it): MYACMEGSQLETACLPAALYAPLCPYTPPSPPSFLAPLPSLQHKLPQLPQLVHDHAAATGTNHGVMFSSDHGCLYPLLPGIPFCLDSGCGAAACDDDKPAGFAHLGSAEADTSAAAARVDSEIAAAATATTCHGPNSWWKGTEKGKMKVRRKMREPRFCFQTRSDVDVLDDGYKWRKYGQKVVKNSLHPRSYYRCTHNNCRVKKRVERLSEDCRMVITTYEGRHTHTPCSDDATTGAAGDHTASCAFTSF
Test details: protein-binding microarray (RPBM); PBS, 2% BSA, 51.3 ng/ul salmon testes DNA, 50 uM zinc acetate, 200 nM TF, 25 C, 1 h; high values mean tight binding
Assay setup: protein: recombinant; tags: N-terminal polyhistidine and DsRed monomer fusion (pET32a); label: CyDye5-dUTP incorporated in the synthesized complementary strand; 3' TTTTT single-stranded linker to array surface; dsDNA, one strand shown
Over roughly 68,000 sequences, “fluorescence intensity (a.u.)” has its median near 9,100; the highest 2% begin near 16,000. The entries come from a sample that favours the highest values as a whole.

- Sequence code: "ATCTTATGGTGTATTTTTTTTTTCTCCGGTGCAGGTTGGTCGGAGTCACCTAGTGCAG"
  binding signal: "8260 fluorescence intensity (a.u.)"
- Sequence code: "TTCTTATTCTGTCGGTTGTGTGGTGGCAGGGCAGTTAATTCGGAGTCACCTAGTGCAG"
  binding signal: "8630 fluorescence intensity (a.u.)"
- Sequence code: "AACCTCTACTGCTCCATATATTTTCTTTCTGTCAGCCCATCGGAGTCACCTAGTGCAG"
  binding signal: "11200 fluorescence intensity (a.u.)"
- Sequence code: "GGTGCGGCGGTGGGCGGCATGGAGATGGGGAGAGGAGGCGCGGAGTCACCTAGTGCAG"
  binding signal: "10600 fluorescence intensity (a.u.)"
- Sequence code: "GGGTGGGTGGGGCGGTGCTTTCCTGGAGATGGGAGAGTGGCGGAGTCACCTAGTGCAG"
  binding signal: "23000 fluorescence intensity (a.u.)"

---

Experimental target: OsWRKY34 (Oryza sativa, UniProt Q0JBA9 1-250)
Test details: protein-binding microarray (RPBM); PBS, 2% BSA, 51.3 ng/ul salmon testes DNA, 50 uM zinc acetate, 200 nM TF, 25 C, 1 h; high values mean tight binding
Assay setup: protein: recombinant; tags: N-terminal polyhistidine and DsRed monomer fusion (pET32a); label: CyDye5-dUTP incorporated in the synthesized complementary strand; 3' TTTTT single-stranded linker to array surface; dsDNA, one strand shown
In all, about 68,000 sequences were measured (“fluorescence intensity (a.u.)”: median about 9,100, highest 2% from about 16,000 on). This is one part of a sample in which the highest values are shown more often than they occur.

- Sequence code: "TATTGACTTTGGTCAAAGTCAAACTGTTTTAAATTTCACTCGGAGTCACCTAGTGCAG"
  Experimental target: "OsWRKY34 (Oryza sativa, UniProt Q0JBA9 1-250)"
  binding signal: "10500 fluorescence intensity (a.u.)"
- Sequence code: "CTTGCACGCGACGGCCTGGCATTTGTGTACGGCACCGCCCCGGAGTCACCTAGTGCAG"
  Experimental target: "OsWRKY34 (Oryza sativa, UniProt Q0JBA9 1-250)"
  binding signal: "8030 fluorescence intensity (a.u.)"
- Sequence code: "CAATGTATTCAGGTACGCCGATTATTTGGTTGGTAGTAGTCGGAGTCACCTAGTGCAG"
  Experimental target: "OsWRKY34 (Oryza sativa, UniProt Q0JBA9 1-250)"
  binding signal: "11500 fluorescence intensity (a.u.)"
- Sequence code: "TTGTTGCAGCCTCGCAGTAAGATTCCTTGTTTTTCTTAGCCGGAGTCACCTAGTGCAG"
  Experimental target: "OsWRKY34 (Oryza sativa, UniProt Q0JBA9 1-250)"
  binding signal: "8620 fluorescence intensity (a.u.)"
- Sequence code: "TAAGATGTTTTGACTTTGGTCAAAGTCAAACTACTTTGAGCGGAGTCACCTAGTGCAG"
  Experimental target: "OsWRKY34 (Oryza sativa, UniProt Q0JBA9 1-250)"
  binding signal: "13200 fluorescence intensity (a.u.)"
- Sequence code: "AAGTTATAAGATGTTTTGACTTTGGTCAAAGTCAAACTGCCGGAGTCACCTAGTGCAG"
  Experimental target: "OsWRKY34 (Oryza sativa, UniProt Q0JBA9 1-250)"
  binding signal: "14600 fluorescence intensity (a.u.)"
- Sequence code: "GGGGATTTTTGTACGCTCACGGCATTTTTTTTGTCAGCGACGGAGTCACCTAGTGCAG"
  Experimental target: "OsWRKY34 (Oryza sativa, UniProt Q0JBA9 1-250)"
  binding signal: "17500 fluorescence intensity (a.u.)"
- Sequence code: "TTATAAGATGTTTTGACTTTGGTCAAAGTCAAACTATTTCCGGAGTCACCTAGTGCAG"
  Experimental target: "OsWRKY34 (Oryza sativa, UniProt Q0JBA9 1-250)"
  binding signal: "16600 fluorescence intensity (a.u.)"
- Sequence code: "ATCCTCCGCCGCCGCCTCACCTCCTCCGCCACCGCGCTCGCGGAGTCACCTAGTGCAG"
  Experimental target: "OsWRKY34 (Oryza sativa, UniProt Q0JBA9 1-250)"
  binding signal: "8270 fluorescence intensity (a.u.)"
- Sequence code: "TGCCGTGGGATGGGGTTGCGGGAGGAGGAGGGTGCTACTACGGAGTCACCTAGTGCAG"
  Experimental target: "OsWRKY34 (Oryza sativa, UniProt Q0JBA9 1-250)"
  binding signal: "17000 fluorescence intensity (a.u.)"
- Sequence code: "GAGTAGTTCGCTTTGGCAGTATGGCATTTGTACACGCTCACGGAGTCACCTAGTGCAG"
  Experimental target: "OsWRKY34 (Oryza sativa, UniProt Q0JBA9 1-250)"
  binding signal: "8660 fluorescence intensity (a.u.)"
- Sequence code: "GTTATTCAAAACTATAGTTATCTTCCGCCTATTTTTTTATCGGAGTCACCTAGTGCAG"
  Experimental target: "OsWRKY34 (Oryza sativa, UniProt Q0JBA9 1-250)"
  binding signal: "10600 fluorescence intensity (a.u.)"
- Sequence code: "GGCCTCTCAACTGACCCGTCTGCGAAATATGTTTATTTTCCGGAGTCACCTAGTGCAG"
  Experimental target: "OsWRKY34 (Oryza sativa, UniProt Q0JBA9 1-250)"
  binding signal: "8060 fluorescence intensity (a.u.)"
- Sequence code: "GGCGGTGGGTGGGTGGAGCCGTGGAGGGATGGAGGGAGGGCGGAGTCACCTAGTGCAG"
  Experimental target: "OsWRKY34 (Oryza sativa, UniProt Q0JBA9 1-250)"
  binding signal: "37900 fluorescence intensity (a.u.)"
- Sequence code: "GTTTGACTTTTTTACTAGTCAAACTTATTTAAGTTTGACCCGGAGTCACCTAGTGCAG"
  Experimental target: "OsWRKY34 (Oryza sativa, UniProt Q0JBA9 1-250)"
  binding signal: "17500 fluorescence intensity (a.u.)"
- Sequence code: "ACTTTGATCATAAAATGAGTTACTCTTACTTTCTTTTATTCGGAGTCACCTAGTGCAG"
  Experimental target: "OsWRKY34 (Oryza sativa, UniProt Q0JBA9 1-250)"
  binding signal: "8920 fluorescence intensity (a.u.)"
- Sequence code: "ACTCTCCCGTTATTGCCGCCACCGGACCGCTAGCTCCGCACGGAGTCACCTAGTGCAG"
  Experimental target: "OsWRKY34 (Oryza sativa, UniProt Q0JBA9 1-250)"
  binding signal: "9570 fluorescence intensity (a.u.)"
- Sequence code: "GAGTACTCGTCCGGGGTTTTTAACTTTTTGCCACTTTTAACGGAGTCACCTAGTGCAG"
  Experimental target: "OsWRKY34 (Oryza sativa, UniProt Q0JBA9 1-250)"
  binding signal: "9100 fluorescence intensity (a.u.)"
- Sequence code: "AAGTTACTTTTATTTTTTTCTAGTCAAACTACTTAGACTTCGGAGTCACCTAGTGCAG"
  Experimental target: "OsWRKY34 (Oryza sativa, UniProt Q0JBA9 1-250)"
  binding signal: "8740 fluorescence intensity (a.u.)"

---

Experimental target: OsWRKY34 (Oryza sativa, UniProt Q0JBA9 1-250)
Test details: protein-binding microarray (RPBM); PBS, 2% BSA, 51.3 ng/ul salmon testes DNA, 50 uM zinc acetate, 200 nM TF, 25 C, 1 h; high values mean tight binding
Assay setup: protein: recombinant; tags: N-terminal polyhistidine and DsRed monomer fusion (pET32a); label: CyDye5-dUTP incorporated in the synthesized complementary strand; 3' TTTTT single-stranded linker to array surface; dsDNA, one strand shown
The full ranking holds about 68,000 sequences; the median of “fluorescence intensity (a.u.)” is about 9,100, and the highest 2% start at about 16,000. Shown is part of a subset that was picked to be rich in the highest values.

- Sequence code: "ACCTCTGCTGATTCTTCTTGCTGTTTCTTTGTTGCGCATTCGGAGTCACCTAGTGCAG"
  binding signal: "11500 fluorescence intensity (a.u.)"
- Sequence code: "TTGCAAATGCAACCCTATTATGCCATCCTTTGTTATCCTGCGGAGTCACCTAGTGCAG"
  binding signal: "9550 fluorescence intensity (a.u.)"
- Sequence code: "ATCGCCGCAACCACCAACCTCTCGAGGCCGTTCGAATCCCCGGAGTCACCTAGTGCAG"
  binding signal: "12300 fluorescence intensity (a.u.)"
- Sequence code: "CCTCTCCTAGGTTAAGTTTTTTTGGGGCGAAGGGAGTATTCGGAGTCACCTAGTGCAG"
  binding signal: "8120 fluorescence intensity (a.u.)"
- Sequence code: "CACACTATAGCTAGTACTAGTACTAGTACTACTTAAACTACGGAGTCACCTAGTGCAG"
  binding signal: "8120 fluorescence intensity (a.u.)"
- Sequence code: "CCGCCGCCGCTCGCCGCCGCATTGCGTTACTCGAGCTCGCCGGAGTCACCTAGTGCAG"
  binding signal: "8710 fluorescence intensity (a.u.)"
- Sequence code: "TACTACTCTCGTGTGGCAAAATTTTGTCTTAGTTCTTGAACGGAGTCACCTAGTGCAG"
  binding signal: "8100 fluorescence intensity (a.u.)"
- Sequence code: "ACTACATCCGCGCACCTGCTTTGCTCGTCGACGATTATAACGGAGTCACCTAGTGCAG"
  binding signal: "12900 fluorescence intensity (a.u.)"
- Sequence code: "CGCAGAACACGTTTCCCAAATCTTGTACTACTACGTACTACGGAGTCACCTAGTGCAG"
  binding signal: "9170 fluorescence intensity (a.u.)"
- Sequence code: "TATCGTGCTTCCATGTGCACAGATCGATCAAACTCGCATGCGGAGTCACCTAGTGCAG"
  binding signal: "9270 fluorescence intensity (a.u.)"
- Sequence code: "GCTACCATCGTCACCGCCTCAACCAAGCTACCCGTGTCTCCGGAGTCACCTAGTGCAG"
  binding signal: "10400 fluorescence intensity (a.u.)"
- Sequence code: "CCTCATCCCGTCCAGCGTTCACCCGACGTCGCCCGTCGCACGGAGTCACCTAGTGCAG"
  binding signal: "10500 fluorescence intensity (a.u.)"
- Sequence code: "TTCTTCCCAGCCAGTGTTCCTAGTATCCATTCTCTCTCAACGGAGTCACCTAGTGCAG"
  binding signal: "9850 fluorescence intensity (a.u.)"
- Sequence code: "CAATCACATCCGCGCGCATTTGGCCTGCGCCTTCAAATTTCGGAGTCACCTAGTGCAG"
  binding signal: "12700 fluorescence intensity (a.u.)"
- Sequence code: "CGTCTCTCCCGATCCGTCCCATCAAAAAGCAACACCAATACGGAGTCACCTAGTGCAG"
  binding signal: "8530 fluorescence intensity (a.u.)"
- Sequence code: "GGCCCCACGTTTCATCCTCACGACCGTGTCCAACCCAGGGCGGAGTCACCTAGTGCAG"
  binding signal: "10300 fluorescence intensity (a.u.)"
- Sequence code: "GGGTTACGGCTGCAAGCTTGTTCTCTCCAGATGGGGAGTTCGGAGTCACCTAGTGCAG"
  binding signal: "10400 fluorescence intensity (a.u.)"
- Sequence code: "TGACGTTTGACCAAAGTTTTCTTCAATTTTTCAGAAATGGCGGAGTCACCTAGTGCAG"
  binding signal: "9900 fluorescence intensity (a.u.)"
- Sequence code: "GTTTTTAATTTCGATAATATTTGATTCTGTTTTCGTGTCCCGGAGTCACCTAGTGCAG"
  binding signal: "8930 fluorescence intensity (a.u.)"
